- Procedure Text: qHTS assay to identify small molecule agonists of the RXR signaling pathway - cell viability counter screen (AID 1159529); note: nearly all actives have a fitted effect of over 50% in size; note: potency is the fitted concentration of half-maximal effect
- Measurement Parameters: RXR-alpha-bla HEK293T viability, CellTiter-Glo, 16 h; series mostly up to 76.8 µM
Inconclusive results are not listed. Activity calls are given as the source filed them. Calls come from the whole dose curve; as a rule, active = well fitted cell-killing curve with a large enough effect in the repeat runs; inconclusive = weak or mixed curves, or effect the other way; inactive = no such curve, though single readings can be large or run the other way.
Property Label: Potency

Check out these entries, answers already filled in.
{"columns": ["Compound", "Potency"],
 "data": [
  ["CCOc1nc2cccc(C(=O)O)c2n1Cc1ccc(-c2ccccc2-c2nn[nH]n2)cc1", "inactive"],
  ["CCOC(=O)CC(C)C", "inactive"],
  ["CC1(C)CCC(C)(C)c2cc(NC(=O)c3ccc(C(=O)O)cc3)ccc21", "inactive"],
  ["CC(=O)c1ccc2c(c1)[C@H](NC(=O)c1ccc(F)cc1)[C@@H](O)C(C)(C)O2", "inactive"],
  ["COc1ccc(OC)c(OC)c1", "inactive"]
]}

List Potency for every entry below, keeping the order given.
1. CCN(CC)C(C)CN1c2ccccc2Sc2ccccc21 (stereo unspecified)
2. CC(C)(C)c1ccc(S)cc1
3. Nc1cnn([C@@H]2O[C@H](CO)[C@@H](O)[C@H]2O)c(=O)n1
4. Cn1c(NCCN(CCO)CCCc2ccc([N+](=O)[O-])cc2)cc(=O)n(C)c1=O
5. COc1ccc2[nH]c(S(=O)Cc3ncc(C)c(OC)c3C)nc2n1 (stereo unspecified)
6. COc1cc(C(C)(C)C)c(O)c(C(C)(C)C)c1
7. Cc1ccc(C)o1

inactive
inactive
inactive
inactive
inactive
inactive
inactive

List Potency for every entry below, keeping the order given.
1. O=C(Nc1ccccc1)OCC(CN1CCCCC1)OC(=O)Nc1ccccc1 (stereo unspecified)
2. CCCCCC(CO)CCC (stereo unspecified)
3. CC(CN)CCCN (stereo unspecified)

1: inactive; 2: inactive; 3: inactive

List Potency for every entry below, keeping the order given.
1. CC(C)c1ccc2c(C(C)C)cc(C(C)C)c(S(=O)(=O)O)c2c1
2. CNS(=O)(=O)Cc1ccc2[nH]cc(CCN(C)C)c2c1
3. CC(=O)N(CC(=O)N(C)C)c1ccccc1

1: inactive; 2: inactive; 3: inactive

List Potency for every entry below, keeping the order given.
1. C=CC(=O)OCCOC(=O)CCC(=O)O
2. CCc1nn(C2CCCCC2)c2cc(C3(C#N)CCC(C(=O)O)CC3)ccc12 (stereo unspecified)
3. ClC(Cl)(Cl)c1ccc(C(Cl)(Cl)Cl)cc1
4. Cn1c(=O)c2c(ncn2CC(O)CO)n(C)c1=O (stereo unspecified)
5. CCCCOc1cc(C(=O)OCCN(CC)CC)ccc1N
6. O=C1[C@H](CC[C@H](O)c2ccc(F)cc2)[C@@H](c2ccc(O)cc2)N1c1ccc(F)cc1

1. inactive
2. inactive
3. inactive
4. inactive
5. inactive
6. inactive

List Potency for every entry below, keeping the order given.
1. Nc1nc(CC(=O)O)cs1
2. O=C(O)/C=C/c1cnc[nH]1

21.9 µM (active)
inactive

List Potency for every entry below, keeping the order given.
1. OC(CCN1CCCCC1)(c1ccccc1)C1CCCCC1 (stereo unspecified)
2. CN1CCN(C2=Nc3ccccc3Sc3ccc(Cl)cc32)CC1
3. CC(=O)O[C@H]1C[C@@H]2CC[C@@H]3[C@H](CC[C@@]4(C)[C@H]3C[C@H]([N+]3(C)CCCCC3)[C@@H]4OC(C)=O)[C@@]2(C)C[C@@H]1N1CCCCC1
4. CCCCCCCCC(CO)CCCCCC (stereo unspecified)
5. O=[N+]([O-])c1cccc(Cl)c1Cl
6. CC(C)NCC(O)c1cc(O)cc(O)c1 (stereo unspecified)
7. O=C(Cl)c1c(Cl)cccc1Cl

inactive
inactive
inactive
inactive
inactive
inactive
inactive

List Potency for every entry below, keeping the order given.
1. CCCCOC(=O)c1ccccc1C(=O)OCC(CC)CCCC (stereo unspecified)
2. COCCOCCOCCOCCOC
3. O=C(O)C(c1ccc(Cl)cc1)c1ccc(Cl)cc1
4. CCCC(=O)OCC
5. CN(C)CCCNCCCN

["inactive", "inactive", "inactive", "inactive", "48.8 µM (active)"]

List Potency for every entry below, keeping the order given.
1. FC(F)(F)C(F)(F)C(F)(F)C(F)(F)C(F)(F)C(F)(F)CCI
2. CC(C)CCCCCCOC(=O)c1ccc(C(=O)OCCCCCCC(C)C)c(C(=O)OCCCCCCC(C)C)c1
3. CC(C)c1cccc(C(C)C)c1NC(=O)NS(=O)(=O)c1cc(C(C)(C)O)co1
4. C=C(C)C(=O)OCCOc1ccccc1

1: inactive; 2: inactive; 3: inactive; 4: inactive
